Target: CDK2/human cyclin E (Homo sapiens)
Test: Determination of activity of CDK2 kinase (Caliper mobility shift)
Conditions: 10 μM ATP, 0.1 nM enzyme, 25° C. 6 hours; read-out: CDK2/CycE IC50
parameter measured: pIC50
Numbers only, as −log10 of the molar value.

Example entries begin here.
# molecule, pIC50
records = [
    ("Cc1nc2c(F)cc(-c3nc(Nc4ccc(N5CCC(N(C)CCO)CC5)cn4)ncc3F)cc2n1C(C)C [Compound 1963]", 7.00),
    ("Cc1nc2c(F)cc(-c3nc(Nc4ccc(N5CCN(CC(C)O)CC5)cn4)ncc3F)cc2n1C(C)C (stereo not shown) [Compound 1987]", 6.45),
    ("CCN1CCN(Cc2ccc(Nc3ncc(F)c(-c4cc(F)c5nc(CF)n(C(C)C)c5c4)n3)nc2)CC1 [Compound 1978]", 6.34),
]

// switching to the query molecule
Kindly note the recorded pIC50 for Cc1nc2c(F)cc(-c3nc(Nc4ccc(CN5CCN(CCO)CC5)cn4)ncc3F)cc2n1C(C)C [Compound 1979] , which is 6.79

The reported numbers originate from patent US12673935B2.
